experiment: label from the status in PepcDB records
RESULT_TYPE: protein production

Answered examples (5):
construct_sequence=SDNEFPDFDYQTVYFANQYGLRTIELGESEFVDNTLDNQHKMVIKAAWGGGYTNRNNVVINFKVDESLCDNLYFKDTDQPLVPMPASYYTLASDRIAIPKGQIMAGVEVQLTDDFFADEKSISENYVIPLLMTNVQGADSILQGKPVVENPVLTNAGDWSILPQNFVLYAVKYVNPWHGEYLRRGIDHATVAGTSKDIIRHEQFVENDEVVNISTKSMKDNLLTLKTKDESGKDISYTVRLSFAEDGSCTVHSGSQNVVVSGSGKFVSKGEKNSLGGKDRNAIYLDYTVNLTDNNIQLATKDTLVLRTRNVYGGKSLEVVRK result_type="protein production" result="not failed"
construct_sequence=MAVLPPDPVFSLRSPDMGAVNSLCFQESDRLLAGTIKGSVFLWDLQTNRSALHFEVGSDPITSLHHTPDRLVTQEKGGTITMFSIGGSSYVKERSIPGNHLGFCRSALHTNTSKTNEQLLFYPCEESSIGVLHVTDAAAPTQILVPDDPQLPKLGSVTCFKPFECASQLFLLAGYESGHFLTWDISSSVILDVMELAQDATSVDYDPVTNRGIVGGPTDKLISFSYQRSSMQMQLGSELCIKNPGVNGVRIRPDQKVFASAGWDGRIRIFSWKSLRPLAVLTQHKNGGVMDLAFSSQQVAMWHAPIMAAAGMDGQISLWDLYN result_type="protein production" result=failed
construct_sequence=RQVTDSDETEELIHLLLDNYAEGKIVKLLFMSENATQPVISQVAKENDVMLNVLHGNLTQTQNGAYGTLYVQVLGTEEAIEASLTQLRQLKVETEVLER result_type="protein production" result="not failed"
construct_sequence=SKEVRGTLKVSAPRDIGKQHIAPILAAFTEQYPEVVPYLYLNDNISNLAESGLDVVIRYGELADSSLISRKLATSRRVLCASPAYLARKGIPKTPQDLAQHDCLAMVRSNEEMKTWHFQENEQHKVITVVPKSFADDGEVIR result_type="protein production" result=failed
construct_sequence=MALMTNKTRALLIGGHGKVALLATPMLIDASVQVTSMYRNPDHRSEIEALGATTLERDVTTLSVEDWADLLKDFDVVVWSAGNGGKNGADATYAIDRDAAIASIDGAASLGEKAPRYIMVSYIGSSTHTIDPSASFYPYAESKKAADEHLSSTNLDYLILAPAALTLDEVNGVEVIADTNEAAAGRTTSRVLVAEVITEFVVRDFPQTRVLPFVDGESPLEHHHHHH result_type="protein production" result="not failed"

Given the entry MLTQANIPSWYEGLNKSGLTPPGPVFSIVWSILYALLAIVGWVLWCSRNESEMRSVFYLYSVQMLMNWAWTPLFFVLHWTGLSFLWILVMAGLTGLLMFSQTNKKKSLAILLLPYLIWLLFAAYLNGVIWLLN , report its measured protein production.
failed

Given the entry MKRTFKMALIASLAVGGSYVLYGSQNKEELSDLALSNVEALTLGTKDCMYQRNSRCYELVVGPPGEPVIIETSEEANWVNRYTIPE , report its measured protein production.
failed

====

assay: label from the status in PepcDB records
RESULT_TYPE: protein production

Answered examples (10):
construct_sequence=GIHMGKIKRRAITEHEKRALRHYFFQLQNRSGQQDLIEWFREKFGKDISQPSVSQILSSKYSYLDNTVEKPWDVKRNRPPKYPLLEAALFEWQVQQGDDATLSGETIKRAAAILWHKIPEYQDQPVPNFSNGWLEGFRKRHILH result_type="protein production" result="not failed"
construct_sequence=MANKKGRRRSFGSCRQLASGRWQVRYRDPQTGLLRPAEKTYETKTDAQVALTHIEADITRGQWADPDAGDVNFADYATAWLRDRKLADRTRERNESVMRLHVVPVFGAGSIADVTTARVRSWRGKLLAAGVGEPTVVKAYQLLRALMNTAVDDELIRRNPCRIKGADSYDVPERPVLSVAEVFGVAYAIAPRYRLLVLLAAFTTLRFGELAALRRKDIDLNGRLVVVRRAQAELQNGRLFDKAPKSAAGLRTVSFPAELVDEISHHLKHYAADGQEGHLFVGPQGGQLRRSNFRDDWIKARKAAGVSPKLHFHDLRHTGNTLASTAGASTRELMTRMGHSSSRAALIYQHMTSDRDRTIADRLGAMIRNGEGDLTAAGD result_type="protein production" result=failed
construct_sequence=MKIKILAVLAVVTVIVVSMFMREKREDPSSLVMMNVEALATGEGTSPAICVGTGSVVCPNDGSKVLYYR result_type="protein production" result=failed
construct_sequence=MRTVVDYGAAIAFGVAYFVTKDFQKATWVLVAASAAALAIGYAVERRLAMLPLFFGGMALVFGTLGLIFGSDVFVKIKVTVINLALASFLVGGVLLKRQPLKVIMGEALHLPDAAWRTLTLRYGAYFAFVAIINEVVRNTQDTDTWVKFRLALLPVALVFVATQLPFMMKHMAKGDDAKAVEPPDAGF result_type="protein production" result=failed
construct_sequence=MSRFMARIMVNGLNEPGTLAKVAQTVAGLDVNIRLLNTVRVAADFTEMMLEVEVWDLRQLNQLLAQMKELDCIATVRRLYELEHHHHHH result_type="protein production" result="not failed"
construct_sequence=MDAKEVSAHWESNAETWTMLSRAGHDRYRDTLNTPAFLAMLPPVAGLKGLDLGCGEGTNTRTVARLGASMTGLDIAPTFLRHARDAERRDPLGIDYVLGDGLTLPFADRSFDFVTAFMSMMDMVDQAAVLREVARVLKPGGFLQFSILHPCFVPPTRRNIRDAEGAPVAVEVADYFDESDGRVERWLFSSISAEQQAALTPFAVPRFHRTLSTWVAMIVGARLSIEAFGEPRASEEVAAAEPIVADTRVAPIFLHVLAKRPTTP result_type="protein production" result=failed
construct_sequence=MNTLEIAKEVFEKEAQAILDLATNLDENFNQAVNLMLNTKGRCIVSGMGKSGHIGAKIAATLASTGTPSFFIHPGEALHGDLGMLTSEDVLIAISNSGETEEILKIIPAIKKREIPLIVMCGKKNSTLVKQGDIFLNIAVEKEACPLQLAPMSSTTATLVMGDALAAALMKVRNFKPDDFALFHPGGSLGRKLLTKVKDLMVSSNLPIVHPDTEFNDLVDVMTSGKLGLCVVLENEKLVGIITDGDLRRALKASDKPRFDFKAKEIMSINPKVVDADAMASEAEGIMLKHKIKEIIVGKEEKVVGIIQLYAIGNV result_type="protein production" result="not failed"
construct_sequence=MIRDYKSKLEFLAFYDELTGLPNKNSLIRWLNLKVSQMDCIDTYLIFLEVRDLEKLNVTYGYDLVDELIIHISKRIKDIAGEGNKAFKIGFDRFAIICKSENISDFIERMLSQLLLPYNVNGNLIRVNFNIGAAQIENSNEAAANLMRRCDLALIKAKEEGLNEYVIFKPSIELEHHHHHH result_type="protein production" result=failed
construct_sequence=MSLDVYVNFPADGHVREIAKTVLDGFDLHWYPDYYDAEAQVIKDRYVLGKRTKMIQAISAGVDHIDVNGIPENVVLCSNAGAYSISVAEHAFALLLAHAKNILENNELMKAGIFRQSPTTLLYGKALGILGYGGIGRRVAHLAKAFGMRVIAYTRSSVDQNVDVISESPADLFRQSDFVLIAIPLTDKTRGMVNSRLLANARKNLTIVNVARADVVSKPDMIGFLKERSDVWYLSDVWWNEPEITETNLRNAILSPHVAGGMSGEIMDIAIQLAFENVRNFFEGEGHHHHHH result_type="protein production" result="not failed"
construct_sequence=MSAYDNVIGGKLKLKGKALDVKAGGVKKKKKHKRQEEQALKITDHELIEGESTEALGKLIEGEEGDEEMNRSEKASEDAKLQQQLDDDDHLTPAERRYIEQKQRLDVQKLAKEANKSHRNRIEDFNQYLANMSEHYDIPKVGPG result_type="protein production" result=failed

Given the entry GQTAKLVSLRDISDRKRMENQLRENQNKYYRLLENLDNGVIVHNANAEIVYANPKAESFLGLTDLEGRDIDDEYWMFFDKEGEKLEKEEFPVAQVLANQSSLKNFEMGIYRPDTDQLLWAYINAYPEFYNE , report its measured protein production.
failed

Given the entry MKYNKDGQTFLLVLDKGEDIVEVLTQFAMEQEMKFGSVSGIGACDNVTLIFYNLDTQKYESREVNEALELTSLLGNISHIDDKPFAHLHGTFGTRDFQTLSGHLTKAVVSATAEIVIQMTNLDVNRTHDEETGLNLLRP , report its measured protein production.
failed

Given the entry MSSSSVIMDFLKYSPQPLQLITRPRHSIHHSTLRSSRRLTTSHNHSTPRSSSSHHHFSPSLDPVAEHHHHQSLDRTLDLVVESPHHHSLDPSLCHQVEFHHHPPLDIILDCQLQSLLDSAINKTLEHKEEMKTLARHSTHYLITWVEYHS , report its measured protein production.
failed

Given the entry MTNWTEIDEIAKKWIREAGARITQSMHESLTIETKSNPNDLVTNIDKETEKFFIDRIQETFPGHRILGEEGQGDKIHSLEGVVWIIDPIDGTMNFVHQQRNFAISIGIFENGEGKIGLIYDVVHDELYHAFSGRGAYMNETKLAPLKETVIEEAILAINATWVTENRRIDQSVLAPLVKRVRGTRSYGSAALELANVAAGRIDAYITMRLAPWDYAAGCVLLNEVGGTYTTIEGEPFTFLENHSVLAGNPSIHKTIFEEYLHARK , report its measured protein production.
failed

meta.source: a protein production outcome set (Wang et al. 2014)
